target: T1, human DR5 (recombinant, fusion format not stated for the assay) (human, UniProt O14763 56-207); test: binding to human DR5 after stress test, pH 6.0, 2 weeks 40° C., against non-stressed initial material (defined 100%)
T1 construct: all antigen constructs carry ECD aa 56-207; also called hu DR5; huDR5
property name: Relative active concentration as compared to the initial state (%)
Answers are plain numbers, in %.

Use the examples below as a reference point.
binder: DR5TAA-0073 (antibody, human IgG1, kappa, L234A L235A, V domains shown, humanized variant of DR5TAA-0011; also called VH17/VL3) VH: QVQLVESGGGLVQPGGSLRLSCSASGFSISRYAMIWVRQAPGKGLEYVGFITSDSSAYYASWAKGRFTISRDNSKNTLYLQMNSLRAEDTAVYYCARYTYSDGTDLWGQGTLVTVSS VL: DIQMTQSPSSLSASVGDRVTITCRASQSISTYLSWYQQKPGKAPKRLIYKASTLASGVPSRFSGSGSGTDFTLTISSLQPEDAATYYCQPNSGIATYGAAFGGGTKVEIKR
units text: %
endpoint result: 104
--
binder: DR5TAA-0067 (antibody, human IgG1, kappa, L234A L235A, V domains shown, humanized variant of DR5TAA-0011; also called VH7/VL15) VH: EVQLVETGGGLIQPGGSLRLSCAASGFTVSRYAMIWVRQAPGKGLEYIGFITSDGSTYYADSAKGRFTISRDNSKNTLYLQMNSLRAEDTAVYYCARYTYSDGTDLWGRGTLVTVSS VL: DIQMTQSPSTLSASVGDRVTITCRASQSISTYLSWYQQKPGKAPKRLIYKASSLASGVPSRFSGSGSGTEFTLTISSLQPDDAATYYCQPNSGIATYGAAFGGGTKVEIKR
units text: %
endpoint result: 107

Attention now shifts to the item below.
Could you tell me which Relative active concentration as compared to the initial state is on file for DR5TAA-0066 (antibody, human IgG1, kappa, L234A L235A, V domains shown, humanized variant of DR5TAA-0011; also called VH7/VL3) VH: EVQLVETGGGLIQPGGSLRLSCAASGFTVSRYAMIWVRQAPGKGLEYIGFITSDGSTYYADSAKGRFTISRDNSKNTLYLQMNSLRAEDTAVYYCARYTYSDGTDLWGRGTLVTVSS VL: DIQMTQSPSSLSASVGDRVTITCRASQSISTYLSWYQQKPGKAPKRLIYKASTLASGVPSRFSGSGSGTDFTLTISSLQPEDAATYYCQPNSGIATYGAAFGGGTKVEIKR ?
102
